Every entry's value here was drawn from ChEMBL document CHEMBL1134564.

Target: Tissue-type plasminogen activator (Homo sapiens)
Sequence (P00750 whole entry): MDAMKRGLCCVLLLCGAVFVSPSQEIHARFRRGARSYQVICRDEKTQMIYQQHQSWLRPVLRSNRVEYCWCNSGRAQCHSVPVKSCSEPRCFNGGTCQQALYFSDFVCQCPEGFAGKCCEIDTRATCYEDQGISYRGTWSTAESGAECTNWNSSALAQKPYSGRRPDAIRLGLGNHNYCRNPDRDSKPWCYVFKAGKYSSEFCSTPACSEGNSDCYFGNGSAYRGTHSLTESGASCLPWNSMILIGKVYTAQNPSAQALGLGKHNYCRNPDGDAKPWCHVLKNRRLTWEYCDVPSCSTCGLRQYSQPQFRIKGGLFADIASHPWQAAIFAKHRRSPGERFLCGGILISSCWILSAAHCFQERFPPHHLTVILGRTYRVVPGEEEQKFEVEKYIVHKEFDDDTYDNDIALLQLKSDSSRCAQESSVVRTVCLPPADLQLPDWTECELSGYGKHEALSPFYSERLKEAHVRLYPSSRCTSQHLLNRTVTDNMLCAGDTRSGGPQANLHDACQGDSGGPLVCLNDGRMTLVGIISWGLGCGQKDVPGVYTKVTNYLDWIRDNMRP
Test: Inhibition of Human Serine Protease tissue type Plasminogen Activator (t-PA).
pKi: −log10 of the molar value.
Measurement name: pKi

[[record]]
structure_smiles = "N=C(N)c1ccc2nc(-c3ccccc3O)[nH]c2c1"
endpoint_result = 4.12

[[record]]
structure_smiles = "N=C(N)c1ccc2nc(-c3cc(F)ccc3O)[nH]c2c1"
endpoint_result = 4.34

[[record]]
structure_smiles = "N=C(N)c1ccc2nc(-c3cc(Br)ccc3O)[nH]c2c1"
endpoint_result = 4.39

[[record]]
structure_smiles = "N=C(N)c1ccc2[nH]c(-c3cc([N+](=O)[O-])cc(Br)c3O)cc2c1"
endpoint_result = 5.89

